Field: pIC50. System: Aurora kinase B (Homo sapiens, UniProt Q96GD4). Provenance: assorted publications.
Sequence (Q96GD4 whole entry): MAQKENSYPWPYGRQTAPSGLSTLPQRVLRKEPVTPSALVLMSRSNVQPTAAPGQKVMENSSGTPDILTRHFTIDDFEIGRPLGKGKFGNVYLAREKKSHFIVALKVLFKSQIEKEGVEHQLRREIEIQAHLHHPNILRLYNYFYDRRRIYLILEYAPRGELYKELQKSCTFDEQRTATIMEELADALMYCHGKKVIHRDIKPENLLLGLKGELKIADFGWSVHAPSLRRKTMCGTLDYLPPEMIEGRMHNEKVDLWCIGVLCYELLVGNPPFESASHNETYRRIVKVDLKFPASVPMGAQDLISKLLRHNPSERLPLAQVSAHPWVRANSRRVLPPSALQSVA
pIC50: −log10 of the molar value.
measuredMetric: pIC50

1. O=c1cc(-c2ccc(O)cc2)oc2cc(O)c(O)c(O)c12    5.41
2. C[C@@H]1O[C@@H](Oc2c(-c3cc(O)c(O)c(O)c3)oc3cc(O)cc(O)c3c2=O)[C@H](O)[C@H](O)[C@H]1O    5.41
3. CN1CCN(c2ccc(Nc3ncc4c(n3)N(C)c3ccccc3C(=O)N4C)cc2)CC1    7.59
4. O=c1c(O)c(-c2ccccc2)oc2cc(O)cc(O)c12    5.01

A: Cc1ccc(Nc2ncnc3cc(OCCCN4CCCC4)ccc23)cc1Nc1ncc(-c2cccnc2)cn1
B: CN1C(=O)c2ccccc2N(C)c2nc(Nc3ccc(OCc4cccc(Cl)c4)cc3)ncc21
C: O=c1c(O)c(-c2ccc(O)c(O)c2)oc2cc(O)c(O)c(O)c12
(Q) Please rank these compounds by pIC50 in descending order. List each label, following the requested order.
(A) A, B, C
